Test system: EFM19
Assay: area over the GR curve, 72 h; higher = more effect
What area over the GR curve was measured for each of the following?
Numbers only, in GR.

| Compound | area over the GR curve, GR |
| --- | --- |
| CC1(N)CCN(c2cnc(-c3cccc(Cl)c3Cl)c(N)n2)CC1 [SHP099] (max 10 µM) | -0.0009 |

Batch: area over the GR curve for all items listed.
1. NC(=O)Nc1cc(-c2cccc(F)c2)sc1C(=O)N[C@H]1CCCNC1 [AZD7762] (max 10 µM)
2. Cc1nc(NC(=O)N2CCC[C@H]2C(N)=O)sc1-c1ccnc(C(C)(C)C(F)(F)F)c1 [Alpelisib/BYL719] (max 10 µM)
3. CC(C)n1nc(-c2ccc3oc(N)nc3c2)c2c(N)ncnc21 [INK128/MLN0128] (max 3.162 µM)

OUT:
1. 0.222
2. 0.445
3. 0.682

###

Tested on: ZR751
Assay: GRmax, 72 h; higher = less effect
Outcome measure: GRmax, 72 h (GR)
One number for each entry, in GR.

| Molecule | Tgt | GRmax, 72 h / GR |
| --- | --- | --- |
| Cc1nc(-c2cn3c(n2)-c2ccc(-c4cnn(C(C)(C)C(N)=O)c4)cc2OCC3)n(C(C)C)n1 [Taselisib/GDC0032] (max 10 µM) | ZR751 | -0.0193 |
| Cc1nc(Nc2ncc(C(=O)Nc3c(C)cccc3Cl)s2)cc(N2CCN(CCO)CC2)n1 [Dasatinib] (max 10 µM) | ZR751 | -0.213 |

In the following, a different molecule is considered.
IN: Given the molecule COc1cccc2c1C(=O)c1c(O)c3c(c(O)c1C2=O)C[C@@](O)(C(=O)CO)C[C@@H]3O[C@H]1C[C@H](N)[C@H](O)[C@H](C)O1 [Doxorubicin] (max 3.162 µM) , what is its reported GRmax, 72 h?
OUT: -0.0018

###

Test system: BT474
Assay: area over the GR curve, 72 h; higher = more effect;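 also: Dye Drop or Deep Dye Drop imaging of viable cells in 384-well plates (Hoechst nuclei, LIVE/DEAD dye), nine half-log doses, GR normalized to DMSO controls and time-zero plates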
Record y whenever area over the GR curve is at 0.4 GR or higher; record n when lower.

| Molecule | Class assignment |
| --- | --- |
| CC(=O)Nc1cccc(-n2c(=O)n(C3CC3)c(=O)c3c(Nc4ccc(I)cc4F)n(C)c(=O)c(C)c32)c1 (max 1 µM) | n |
| C=CCn1c(=O)c2cnc(Nc3ccc(N4CCN(C)CC4)cc3)nc2n1-c1cccc(C(C)(C)O)n1 [AZD1775] (max 10 µM) | n |

Alright, here's another molecule for you.
IN: Dear colleague, could you confirm whether CC(=O)c1c(C)c2cnc(Nc3ccc(N4CCNCC4)cn3)nc2n(C2CCCC2)c1=O (max 3.162 µM) has area over the GR curve at or above 0.4 GR?
OUT: n

###

System: CAL51
Experiment: GRmax, 72 h; higher = less effect;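 also: breast cell lines in 384-well plates, nine doses across a 10^4 range, Dye Drop imaging of viable cells vs DMSO and time-zero plates, GR 0 means no net growth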
Outcome measure: GRmax, 72 h (GR)
Answers are plain numbers, in GR.

| Molecule | GRmax, 72 h / GR |
| --- | --- |
| CC(=O)O[C@H]1C(=O)[C@@]2(C)[C@H]([C@H](OC(=O)c3ccccc3)[C@]3(O)C[C@H](OC(=O)[C@H](O)[C@@H](NC(=O)c4ccccc4)c4ccccc4)C(C)=C1C3(C)C)[C@]1(OC(C)=O)CO[C@@H]1C[C@@H]2O [Paclitaxel] (max 1 µM) | -0.22 |

Batch: GRmax, 72 h for all items listed.
1. CNC(=O)c1cccc(-c2ccc3c(N4CCOC[C@@H]4C)nc(N4CCOC[C@@H]4C)nc3n2)c1 [AZD2014] (max 10 µM)
2. CCc1cnn2c(NCc3ccc[n+]([O-])c3)cc(N3CCCC[C@H]3CCO)nc12 (max 1 µM)

OUT:
[0.201, -0.358]

Batch: GRmax, 72 h for all items listed.
1. NC1(C(=O)N[C@@H](CCO)c2ccc(Cl)cc2)CCN(c2nc[nH]c3nccc2-3)CC1 [AZD5363] (max 10 µM)
2. O=C(c1cc(Cc2n[nH]c(=O)c3ccccc23)ccc1F)N1CCN(C(=O)C2CC2)CC1 [Olaparib/AZD2281] (max 10 µM)

OUT:
1: 0.565; 2: 0.36

IN: Given the molecule Cc1nc(-c2cn3c(n2)-c2ccc(-c4cnn(C(C)(C)C(N)=O)c4)cc2OCC3)n(C(C)C)n1 [Taselisib/GDC0032] (max 10 µM) , what is its reported GRmax, 72 h?
OUT: -0.413

FYI, the data here is from the supplement of paper PMC9663587.
